tested on: SNB-78; test: NCI tumour cell line growth inhibition, 48 h
The source made the active and inactive calls. Cut-off read from the data, not from the text of the source: active = GI50 up to about 1.1 µM and inactive = higher.
This section presents molecules with their documented GI50 values.
reportedEndpoint: GI50

>>> df
                                   molecule       measuredresult
0  O=C(O)C12C3CCC(C3)C1(C(=O)O)C1CCC2C1 (stereo unspecified)  > 100 µM (inactive)
1  COC(=O)c1cc2c3c(ccc2[nH]1)N(C(=O)c1cc2c4c(ccc2[nH]1)N(C(=O)c1cc2c5c(ccc2[nH]1)N(C(N)=O)CC5)CC4)CC3  > 100 µM (inactive)
2  CN1CC[C@]2(C)c3cc(O)ccc3CC3CCCC1C32C (stereo partly specified)  > 100 µM (inactive)
3    O=C(NC1CCCCC1)NC12CC3CC(CC(F)(C3)C1)C2  > 100 µM (inactive)
4  CC(C)N(C(=O)C12C3C4C1C1C2C3C41C(N)=O)C(C)C (stereo unspecified)  > 100 µM (inactive)
5  CC(C)CC(NC(=O)OC(C)(C)C)C(=O)Nc1ccc(Nc2nc(F)nc(-c3c4ccccc4cn3C)n2)cc1 (stereo unspecified)   14.7 µM (inactive)

---

system: SF-295; assay: NCI tumour cell line growth inhibition, 48 h
The source made the active and inactive calls. Cut-off read from the data, not from the text of the source: active = GI50 up to about 1.1 µM and inactive = higher.
reportedEndpoint: GI50

compound	measuredResult
Nc1nc(SCc2ccccc2[N+](=O)[O-])c2[nH]cnc2n1	> 67.6 µM (inactive)
N#C/C(=C\c1ccc2ccccc2c1)c1ccccc1	20.2 µM (inactive)
Cc1c2c(cc3c1[nH]c1ccccc13)C(c1ccc(Cl)cc1)=NCC2	0.255 µM (active)
Nc1ccc2cc(S(=O)(=O)O)cc(O)c2c1/N=N/c1ccc(NC(=O)Nc2ccc(/N=N/c3c(N)ccc4cc(S(=O)(=O)O)cc(O)c34)c(S(=O)(=O)O)c2)cc1S(=O)(=O)O	> 100 µM (inactive)
COc1ccc(/C=C2\NC(=S)N(/C=C3\C(=O)Oc4ccccc4C3=O)C2=O)cc1OC	> 100 µM (inactive)
Cc1c(Cl)cc(C(C)(C)C)c(O)c1Cc1c(C)c(Cl)cc(C(C)(C)C)c1O	2.07 µM (inactive)
CCN(CC)CCn1c2ccccc2c(=O)c2c(OC)ccc(OC)c21	61.2 µM (inactive)
O=[N+]([O-])c1ccc(C2=NOC(c3ccccc3F)N2C23CC4CC(CC(C4)C2)C3)cc1 (configuration not stated)	> 100 µM (inactive)
CN(C)NC(=O)/C(=C/c1ccc(Cl)cc1)NC(=O)c1ccccc1	> 100 µM (inactive)
O=C1C2c3[nH]c4ccccc4c3[C@@H]3CCCCC3C2C(=O)N1c1ccccc1 (some centres not stated)	21.1 µM (inactive)
Cn1c(=O)c2[nH]c(/N=N/N3CCN(CCO)CC3)nc2n(C)c1=O	> 100 µM (inactive)
O=C1CC(=O)NC(NN2C(=O)CSC2c2ccccc2)=N1 (configuration not stated)	> 100 µM (inactive)
Cc1c[nH]c(C(=O)O)c1-c1cccn1-c1ccc(Cl)cc1[N+](=O)[O-]	73.8 µM (inactive)
Cc1ccccc1NC(=O)CSc1nnc(Cc2ccccc2)o1	> 100 µM (inactive)
COc1cc(C2(C)SCCCS2)cc(OC)c1OC	> 100 µM (inactive)
COC(=O)C1=NC(=S)NC(c2ccccc2)C1c1nc2ccccc2o1 (configuration not stated)	> 50 µM (inactive)
CC1(C)C(=O)C(C)(C)C12SSC1(S2)C(C)(C)C(=O)C1(C)C	> 100 µM (inactive)
CC1(C)O/C(=C\c2ccccc2)C(=O)/C(=C/c2ccccc2)O1	44.9 µM (inactive)
CO/C(=N\N=Cc1ccccc1)c1ccncc1	> 100 µM (inactive)
CC(C)N/C(=N\C#N)NS(=O)(=O)c1cnccc1Nc1ccc(Cl)cc1	> 100 µM (inactive)
COc1ccc2c(c1)[n+]([O-])c(C(C)=O)c(C)[n+]2[O-]	> 100 µM (inactive)
COc1cc(OC)c(OC)cc1/C=N/N=C(\N)NO	51.1 µM (inactive)
Cc1ccc(C2(O)c3ccccc3C(=O)N(C)C2(O)c2ccc(C)cc2)cc1 (configuration not stated)	38.1 µM (inactive)
CN(c1ccc(C(=O)c2ccc(N(C)S(C)(=O)=O)cc2)cc1)S(C)(=O)=O	78.2 µM (inactive)
O=c1oc(-c2ccc(O)c(O)c2)cc2cccc(O)c12	27.5 µM (inactive)
N#Cc1c(N2CCN(c3ccc([N+](=O)[O-])cc3)CC2)[n+]([O-])c2ccc(-c3ccc([N+](=O)[O-])cc3)cc2[n+]1[O-]	8.51 µM (inactive)
Fc1ccccc1CN1COc2c(cc(Cl)c3cccnc23)C1	0.726 µM (active)
Cc1ccc(OCC2OC(n3cnc4c(Br)nc(Br)nc43)CC2Oc2ccc(C)cc2)cc1 (configuration not stated)	8.49 µM (inactive)
OC(c1ccc2c(c1)OCO2)c1ccc2c(c1)OCO2	> 100 µM (inactive)
COc1ccc(P2(=S)OC(C)(C)C(C)(C)O2)cc1	> 100 µM (inactive)
COc1ccc(-n2c(C)nc3ccc(NC4OC(COC(C)=O)C(OC(C)=O)C(OC(C)=O)C4OC(C)=O)cc3c2=O)cc1 (configuration not stated)	> 100 µM (inactive)
CSC1(SC)N2Cc3ccccc3N=C2C1(c1ccccc1)c1ccccc1	11.1 µM (inactive)
O=P(O)(O)CC1OC(CO)C(O)C1O (configuration not stated)	> 100 µM (inactive)
N=C(N)NCC(N)C(=O)O (configuration not stated)	> 100 µM (inactive)
CN1CCN(C(=O)CCC(=O)Nc2cc3c(c4ccccc24)-c2ccc4ccccc4c2C3)CC1	1.71 µM (inactive)
CC(C)CNc1nc2ncnc(N)c2[nH]1	> 100 µM (inactive)
N[C@]1(C(=O)O)C[C@@H]2C(Br)=NO[C@@H]2C1	> 100 µM (inactive)

---

This section presents compounds with their documented GI50 values.
tested on: HOP-92; experiment: NCI tumour cell line growth inhibition, 48 h
The source made the active and inactive calls. No stated cut-off is given here; in the data, active = GI50 up to about 1.1 µM and inactive = higher.
reportedEndpoint: GI50

                                    compound       measuredresult
 0    CC(C)[C@H]1CO[C@@H]2O[C@H](C)CC(=O)N21  > 100 µM (inactive)
 1  Cc1ccc(S(=O)(=O)N(CC(O)c2ccccc2)c2ccccc2F)cc1 (stereo unspecified)   10.2 µM (inactive)
 2  CC(=N/NC(=S)N1CCCCC1)/C(=N\NC(=S)N1CCCCC1)c1ccccc1    1.9 µM (inactive)
 3  CC(=O)c1ccc2c(c1)CC1(C2)Cc2cc3c(cc2C1=O)CCC3 (stereo unspecified)   25.9 µM (inactive)
 4  O=C(N/C(=C\c1ccc(Oc2ccc(Cl)c(Cl)c2)cc1)c1nc2ccccc2[nH]1)c1ccccc1   10.4 µM (inactive)
 5  COc1ccc(/C=C2\NC(=S)N(/C=C3\C(=O)Oc4ccccc4C3=O)C2=O)cc1OC   73.6 µM (inactive)
 6       C=CC1(c2ccc3ccccc3c2)OCC(CC)(CC)CO1   23.4 µM (inactive)
 7  Cc1c[nH]c(C(=O)O)c1-c1cccn1-c1ccc(Cl)cc1[N+](=O)[O-]     56 µM (inactive)
 8              O=C1C=CC(=O)c2c1cc1ccccc1c2O    1.8 µM (inactive)
 9  O=C(/C=C/c1ccc(OCCSCCCCCCCCCCSCCOc2ccc(/C=C/C(=O)c3ccc(Cl)cc3)cc2)cc1)c1ccc(Cl)cc1   47.4 µM (inactive)
10     CC(=O)OCCn1cnc2nc(Nc3ccccc3)nc(Cl)c21   13.6 µM (inactive)

---

system: COLO 205; experiment: NCI tumour cell line growth inhibition, 48 h
Active and inactive are the calls of the source. Cut-off read from the data, not from the text of the source: active = GI50 up to about 1.1 µM and inactive = higher. *1 amine or outer side, *2 acyl side, *3 side chain or, on linkers, in order; H or OH if unused. Where a SMILES comes first, the peptide text is derived from it. Bridges are numbered along the chain shown (N, C = ends). Roman numbers before positions name the chains, in order. [ ]: non-standard residue; d: D form. Actinocin(9to1) = Cc1c2oc3c(C)ccc(C(=O)[*:1])c3nc-2c(C(=O)[*:2])c(N)c1=O; NMeV = CN[CH](C(=O)O)C(C)C; Sar = CNCC(=O)O
Outcomes: Y for active, N for inactive

compound	classLabel
CN(C)CC1CCC/C(=C\c2ccccc2)C1=O (stereo not drawn)	N
CC(C)[C@H]1CO[C@@H]2O[C@H](C)CC(=O)N21	N
Cc1c2oc3c(C)ccc(C(=O)NC4C(=O)NC(C(C)O)C(=O)N5CCCC5C(=O)N(C)CC(=O)N(C)C(C(C)C)C(=O)OC4C)c3nc-2c(C(=O)NC2C(=O)NC(C(C)O)C(=O)N3CCCC3C(=O)N(C)CC(=O)N(C)C(C(C)C)C(=O)OC2C)c(N)c1=O (stereo not drawn) (I: TTP[Sar][NMeV] / II: TTP[Sar][NMeV]; ester I:1-I:C, II:1-II:C; linker I:N-II:N via Actinocin(9to1); configuration not given here)	Y
